Subject Of Test: HEK293 cells expressing NR1/NR2B (Homo sapiens (Human))
Sequence (Q13224 27-1484, other chains not shown): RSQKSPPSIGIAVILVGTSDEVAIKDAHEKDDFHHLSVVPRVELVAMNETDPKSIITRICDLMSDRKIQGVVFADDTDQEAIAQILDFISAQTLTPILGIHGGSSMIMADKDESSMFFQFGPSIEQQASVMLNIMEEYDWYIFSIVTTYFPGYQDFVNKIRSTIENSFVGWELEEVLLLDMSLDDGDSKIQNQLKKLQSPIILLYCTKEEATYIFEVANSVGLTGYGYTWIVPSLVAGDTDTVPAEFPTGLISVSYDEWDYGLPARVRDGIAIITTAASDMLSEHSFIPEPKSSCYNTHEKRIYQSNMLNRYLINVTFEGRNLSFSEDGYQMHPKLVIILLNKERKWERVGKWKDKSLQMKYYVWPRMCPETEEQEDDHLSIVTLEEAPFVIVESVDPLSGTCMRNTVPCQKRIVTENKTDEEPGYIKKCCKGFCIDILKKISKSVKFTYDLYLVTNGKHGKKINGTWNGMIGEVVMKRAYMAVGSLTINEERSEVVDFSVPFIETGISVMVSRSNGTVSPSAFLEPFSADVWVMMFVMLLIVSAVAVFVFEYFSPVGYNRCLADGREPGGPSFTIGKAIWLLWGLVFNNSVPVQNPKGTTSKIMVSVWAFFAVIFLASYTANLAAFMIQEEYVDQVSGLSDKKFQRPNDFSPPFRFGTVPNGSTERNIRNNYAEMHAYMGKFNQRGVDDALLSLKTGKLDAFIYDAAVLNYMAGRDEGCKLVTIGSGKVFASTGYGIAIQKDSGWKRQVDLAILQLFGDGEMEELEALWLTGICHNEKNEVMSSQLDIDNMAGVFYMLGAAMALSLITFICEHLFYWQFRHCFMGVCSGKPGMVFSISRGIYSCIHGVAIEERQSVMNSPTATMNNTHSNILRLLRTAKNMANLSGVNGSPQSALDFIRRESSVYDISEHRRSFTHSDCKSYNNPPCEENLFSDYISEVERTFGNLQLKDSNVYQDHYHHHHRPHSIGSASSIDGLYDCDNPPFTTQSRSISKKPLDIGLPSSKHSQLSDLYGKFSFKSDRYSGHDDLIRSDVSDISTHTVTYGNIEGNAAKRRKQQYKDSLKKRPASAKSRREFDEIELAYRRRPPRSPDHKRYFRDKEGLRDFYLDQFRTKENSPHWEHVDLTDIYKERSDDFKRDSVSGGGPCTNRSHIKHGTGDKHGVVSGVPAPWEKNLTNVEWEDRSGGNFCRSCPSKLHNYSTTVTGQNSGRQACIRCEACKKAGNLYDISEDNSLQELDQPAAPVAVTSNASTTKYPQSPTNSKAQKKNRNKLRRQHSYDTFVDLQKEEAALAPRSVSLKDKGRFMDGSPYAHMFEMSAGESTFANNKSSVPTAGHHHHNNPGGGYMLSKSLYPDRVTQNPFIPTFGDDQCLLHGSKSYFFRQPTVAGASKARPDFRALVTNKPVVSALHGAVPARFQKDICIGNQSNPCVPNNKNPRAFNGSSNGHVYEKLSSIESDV
Protocol Text: NR2B NAM Assay (FDSS Ca2+ influx cell assay)
Assay type: cell-based
Recorded Conditions: Ca2+ influx inhibition relative to MK801; 3 μM glutamate, 3 μM glycine, 1 mM Ca2+; read-out: NR2B NAM IC50
For each of the molecules below, state its pIC50.
Numbers only, as −log10 of the molar value.

Sample answers from the record:
Molecule	Subject Of Test	Readout Type	Measured Value
O=C(CN1C[C@H]2C[C@H](Oc3ccc(F)c(F)c3)C[C@H]2C1)c1ccc(O)cn1	HEK293 cells expressing NR1/NR2B (Homo sapiens (Human))	pIC50	5.90
Cc1cccc(O[C@H]2C[C@@H]3CN(CC(O)c4ccc(O)cn4)C[C@@H]3C2)c1F (some centres unmarked)	HEK293 cells expressing NR1/NR2B (Homo sapiens (Human))	pIC50	7.63
Oc1ccc(C(O)CN2C[C@H]3C[C@@H](Oc4ccc(F)cc4)C[C@H]3C2)cc1 (some centres unmarked)	HEK293 cells expressing NR1/NR2B (Homo sapiens (Human))	pIC50	7.75

For each entry beneath this line, provide reported pIC50.
1. O=C(CN1C[C@H]2C[C@H](Oc3ccc(F)c(F)c3)C[C@H]2C1)c1ccc(O)cc1
2. Oc1ccc(C(O)CN2C[C@H]3C[C@H](Oc4cccnc4)C[C@H]3C2)cc1F (some centres unmarked)
3. Cc1ccc(O[C@H]2C[C@@H]3CN(CC(=O)c4ccc(O)cn4)C[C@@H]3C2)c(F)c1
4. Cc1ccc(O[C@H]2C[C@@H]3CN(CC(=O)c4ccc(O)cn4)C[C@@H]3C2)c(F)n1
5. Cc1ccc(O[C@H]2C[C@@H]3CN(CC(O)c4ccc(O)cn4)C[C@@H]3C2)c(F)c1 (some centres unmarked)

Result:
1. 7.21
2. 7.28
3. 6.65
4. 5.00
5. 7.84

Entry source: patent US10239835B2
